- Tested on: CCRF-CEM
- protocol.description: NCI tumour cell line growth inhibition, 48 h
Calls of active or inactive are those of the source. Cut-off read from the data, not from the text of the source: active = GI50 up to about 1.1 µM and inactive = higher.
Outcome field: choose from active, inactive

Solved cases (5 shown):
compound	class.assignment
COc1cccc(-c2nc(O)c3ccccc3n2)c1OC	inactive
O=C1NC(N2CCCC(CO)C2)=N/C1=C\c1cccs1 (stereo unspecified)	inactive
COC(=O)CCC1(C)C2CCC1/C(=N/O)C2 (stereo unspecified)	inactive
COc1cc(S(=O)(=O)Nc2nc(-c3ccc(N)cc3)cs2)ccc1Cl	inactive
CCOC(=O)C1=C(O)C(=O)c2ccccc2C1=O	inactive

QUERY: Record lookup: outcome of this test for CCCCCC(/C=N/NC(N)=S)C(O)(C(F)(F)F)C(F)(F)F (stereo unspecified) ?
RESULT: inactive

QUERY: What call does the record list for "C[C@]12CCC(=O)C(O)=C1CCC2=O" ?
RESULT: inactive

* * *

- Test system: SR
- protocol.description: NCI tumour cell line growth inhibition, 48 h
Active and inactive are the calls of the source. No stated cut-off is given here; in the data, active = GI50 up to about 1.1 µM and inactive = higher.
Entry note: the call must match one of active, inactive

QUERY: Entry "CCOC(=O)c1cc([N+](=O)[O-])cc([N+](=O)[O-])c1Sc1[nH]cnc2ncnc1-2" : call = ?
RESULT: inactive

QUERY: GET /call?item= CC1=CC2C(C=C1)S(=O)(=O)N1CC21c1ccccc1 (stereo unspecified) returns the recorded outcome of this test.
RESULT: inactive

QUERY: Test call for this compound, please: "CC(=O)OC(Cc1ccc2ccccc2n1)(C(F)(F)F)C(F)(F)F"
RESULT: active

QUERY: Dear all, I need the recorded test outcome for "CCCCCCCCCCCCOC(=S)NCCCC" , thank you.
RESULT: inactive

QUERY: I'd appreciate the recorded outcome for "NS(=O)(=O)c1nnc(NS(=O)(=O)c2ccccc2[N+](=O)[O-])s1" from this test.
RESULT: inactive

* * *

- Tested on: SF-295
- protocol.description: NCI tumour cell line growth inhibition, 48 h
The source made the active and inactive calls. Cut-off read from the data, not from the text of the source: active = GI50 up to about 1.1 µM and inactive = higher.
Recorded GI50 values for a group of compounds are listed next.

compound	measurement.label	test.result
CC1OC(O[C@@H]2OC=C(C=O)[C@@]3(O)CC[C@H](C)[C@@H]23)C(O)C(O)C1O (stereo partly specified)	GI50	> 100 µM (inactive)

QUERY: Could you tell me which GI50 is on file for "c1ccc(-c2csc3ncn4cnnc4c23)cc1" ?
RESULT: > 100 µM (inactive)

QUERY: Which measured GI50 value corresponds to "O/N=C(\CC(O)(C(F)(F)F)C(F)(F)F)c1cccs1" ?
RESULT: > 10 µM (inactive)

QUERY: Recorded GI50 for "CCOC(=N)CC(=O)Nc1cccc(C)c1C" , please?
RESULT: > 100 µM (inactive)

QUERY: Entry under review: COC1CC(O[C@H]2CC[C@@]3(C)C(=CCC4(O)C3CCC35C(=O)OC6(C)O[C@@]43CCC65)C2)OC(C)C1O (stereo partly specified) . Reported GI50?
RESULT: > 100 µM (inactive)

QUERY: Recorded GI50 of "COc1cccc(-c2nc(O)c3ccccc3n2)c1OC" , please.
RESULT: > 100 µM (inactive)

QUERY: Could you share which GI50 value was measured for O=C(OC1C#CCSCC#C/C=C\1)c1cnc2ccccc2n1 (stereo unspecified) ?
RESULT: > 100 µM (inactive)

QUERY: So what does the record say about GI50 for "Cn1c(=O)c2c(nc(NCCCCl)n2CC(=O)NCCCCl)n(C)c1=O" ?
RESULT: > 100 µM (inactive)

QUERY: Query: GI50; subject: COC12OCCN(C)C1=CC(=O)C1N=NCC12 (stereo unspecified)
RESULT: > 100 µM (inactive)

QUERY: # get_value(readout='GI50', item= "CCCCN(C)/N=N/c1[nH]cnc1C(N)=O" )
RESULT: > 94.2 µM (inactive)

QUERY: So what's the measured GI50 for this one? "Cc1ccc(N2CCc3c(C)c(C#N)c4nc5ccccc5n4c32)cc1"
RESULT: 41.6 µM (inactive)
